Measured shrunken log2 fold change accompanies every entry in the list below.
- Tested on: Escherichia coli TOP10;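 further: peptides expressed intracellularly from a pBAD plasmid library in pooled LB shake-flask culture, induced with 0.3% L-arabinose, DNA abundance read by NGS, three biological replicates, DESeq2 with apeglm shrinkage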
- assayRemarks: shrunken log2 fold change of peptide-encoding DNA abundance (4.5 h post-induction vs induction); higher = less antimicrobial activity (less host growth inhibition)
- cond: time post-induction: 4.5 h; library: site-saturation at positions 5, 18, 19, 20
Answer as a number with no unit attached.

# annotated cases, reported shrunken log2 fold change shown
RRIRARPPRLPRPRPRPNFRPRP 0.376
RRIRARPPRLPRPRPRPNGAPRP 0.0281
RRIRMRPPRLPRPRPRPHCGPRP -0.033
RRIRMRPPRLPRPRPRPDDSPRP 0.175
RRIRTRPPRLPRPRPRPADSPRP 0.0603

Return reported shrunken log2 fold change. Input sequence: RRIRTRPPRLPRPRPRPPFRPRP
0.693

Return reported shrunken log2 fold change. Input sequence: RRIRHRPPRLPRPRPRPYMIPRP
-0.025

Data origin, for the record: the supplement of paper PMC9112550
